# assay_target: 72 kDa type IV collagenase (Homo sapiens)
# Sequence (P08253 whole entry): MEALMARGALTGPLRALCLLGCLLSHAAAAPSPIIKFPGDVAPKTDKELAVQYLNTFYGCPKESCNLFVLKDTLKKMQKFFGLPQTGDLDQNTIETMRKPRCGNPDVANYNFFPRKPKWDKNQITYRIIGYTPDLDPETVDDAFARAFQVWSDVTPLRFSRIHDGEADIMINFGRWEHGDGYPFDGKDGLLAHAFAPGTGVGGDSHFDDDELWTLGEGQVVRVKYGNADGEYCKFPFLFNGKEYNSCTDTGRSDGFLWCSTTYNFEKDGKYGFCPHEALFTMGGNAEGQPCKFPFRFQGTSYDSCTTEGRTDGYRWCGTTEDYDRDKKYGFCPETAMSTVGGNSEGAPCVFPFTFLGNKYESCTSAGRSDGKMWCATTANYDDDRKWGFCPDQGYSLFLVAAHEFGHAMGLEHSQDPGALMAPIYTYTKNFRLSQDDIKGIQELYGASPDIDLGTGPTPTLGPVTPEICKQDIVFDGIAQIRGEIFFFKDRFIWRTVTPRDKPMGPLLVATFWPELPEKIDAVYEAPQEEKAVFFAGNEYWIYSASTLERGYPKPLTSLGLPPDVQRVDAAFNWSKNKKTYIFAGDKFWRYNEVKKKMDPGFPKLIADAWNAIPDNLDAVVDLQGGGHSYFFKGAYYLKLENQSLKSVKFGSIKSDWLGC
# procedure_text: Inhibition of human matrix metalloprotease-2
pKi: −log10 of the molar value.
measurement_kind: pKi

Answered cases to consult:
Field request: pKi | item: `C[C@H](NC(=O)[C@H](Cc1ccccc1)NS(=O)(=O)c1cccc(C(F)(F)F)c1)C(=O)Nc1n[nH]c(=S)s1` 4.96

Field request: pKi | item: `Cc1ccccc1S(=O)(=O)NC(=O)N[C@@H](Cc1ccccc1)C(=O)N[C@@H](C)C(=O)Nc1n[nH]c(=S)s1` 5.10

Field request: pKi | item: `C[C@H](NC(=O)[C@H](Cc1ccccc1)NS(=O)(=O)c1cccc([N+](=O)[O-])c1)C(=O)Nc1n[nH]c(=S)s1` 4.92

Field request: pKi | item: `C[C@H](NC(=O)[C@H](Cc1ccccc1)NS(=O)(=O)c1ccc([N+](=O)[O-])cc1)C(=O)Nc1n[nH]c(=S)s1` 4.92

Field request: pKi | item: `C[C@H](NC(=O)[C@H](Cc1ccccc1)NS(=O)(=O)c1cc(Cl)ccc1Cl)C(=O)Nc1n[nH]c(=S)s1` 5.00

[1] C[C@H](NC(=O)[C@H](Cc1ccccc1)NS(=O)(=O)c1cccs1)C(=O)Nc1n[nH]c(=S)s1
[2] CC(=O)Nc1ccc(S(=O)(=O)N[C@@H](Cc2ccccc2)C(=O)N[C@@H](C)C(=O)Nc2n[nH]c(=S)s2)cc1
Compare the recorded pKi of 1 and 2 ; state which is larger. Label of pick, please. 2
(2: 5.10, 1: 4.89)
